Molecular target: UniProt Q16790
Assay: Inhibition of recombinant human CA9 pre-incubated for 6 hrs measured by phenol red dye based stopped flow CO2 hydration assay
readout: Ki (nM)

INSERT INTO measurements (structure_smiles_string, readout, measured_result) VALUES
  ('O=C(Cn1cc(F)c(=O)[nH]c1=O)Oc1ccc2ccc(=O)oc2c1', 'Ki', 36.8);

[I] Cc1cc(=O)oc2cc(-n3cc(Cn4cc(F)c(=O)[nH]c4=O)nn3)ccc12
[II] Cc1cc(=O)oc2cc(NC(=O)Cn3cc(F)c(=O)[nH]c3=O)ccc12
Q. I'm curious, which of these has a smaller Ki number: I or II ? Record your answer as the label of the chosen record.
A. II

Provenance of the data: ChEMBL document CHEMBL4765260
